experiment: n-octanol/water and n-octanol/phosphate buffer partition coefficient; format: physicochemical; conditions: n-octanol/water
readout label: logP

INSERT INTO assay_data (compound, endpoint_value) VALUES
  ('CC(C)Cc1ccc(C(C)C(=O)O)cc1 (racemic) [rac-IBU, 2-(4-isobutylphenyl)-propionic acid, reference compound]', 2.42);

====

experiment: Solubility; type: physicochemical; conditions: pH 5.4, 25 °C
readout label: Solubility in phosphate buffer pH = 5.4

INSERT INTO measurements (compound, readout_label, endpoint_value) VALUES
  ('CC(C)Cc1ccc(C(C)C(=O)O)cc1.CCCCCCOC(=O)[C@@H](N)C(C)C [[ValOHex][IBU], L-valine hexyl ester ibuprofenate]', 'Solubility in phosphate buffer pH = 5.4', '0.759 ± 0.006 g dm^−3'),
  ('CC(C)Cc1ccc(C(C)C(=O)O)cc1.CCCCCOC(=O)[C@@H](N)C(C)C [[ValOAm][IBU], L-valine pentyl ester ibuprofenate]', 'Solubility in phosphate buffer pH = 5.4', '1.380 ± 0.007 g dm^−3'),
  ('CC(C)Cc1ccc(C(C)C(=O)O)cc1.CCCCOC(=O)[C@@H](N)C(C)C [[ValOBu][IBU], L-valine butyl ester ibuprofenate]', 'Solubility in phosphate buffer pH = 5.4', '2.371 ± 0.016 g dm^−3'),
  ('CC(C)Cc1ccc(C(C)C(=O)O)cc1.CCOC(=O)[C@@H](N)C(C)C [[ValOEt][IBU], L-valine ethyl ester ibuprofenate]', 'Solubility in phosphate buffer pH = 5.4', '3.969 ± 0.056 g dm^−3'),
  ('CC(C)Cc1ccc(C(C)C(=O)O)cc1.CCCOC(=O)[C@@H](N)C(C)C [[ValOPr][IBU], L-valine propyl ester ibuprofenate]', 'Solubility in phosphate buffer pH = 5.4', '3.057 ± 0.045 g dm^−3');

====

# reported T onset, the onset temperature of the thermal degradation; entries follow
assay: Thermal stability by TG analysis; format: physicochemical
readout label: T onset, the onset temperature of the thermal degradation (°C)

INSERT INTO assay_data (molecule, endpoint_value) VALUES
  ('CC(C)Cc1ccc(C(C)C(=O)O)cc1 (racemic) [rac-IBU, 2-(4-isobutylphenyl)-propionic acid, reference compound]', 189.8),
  ('CC(C)Cc1ccc(C(C)C(=O)O)cc1.CCOC(=O)[C@@H](N)C(C)C [[ValOEt][IBU], L-valine ethyl ester ibuprofenate]', 89.5),
  ('CC(C)Cc1ccc(C(C)C(=O)O)cc1.CCCCOC(=O)[C@@H](N)C(C)C [[ValOBu][IBU], L-valine butyl ester ibuprofenate]', 119.9);

====

assay: n-octanol/water and n-octanol/phosphate buffer partition coefficient; format: physicochemical; conditions: n-octanol/phosphate buffer pH 5.4, 25 °C
readout label: log PpH=5.4

INSERT INTO measurements (compound, endpoint_value) VALUES
  ('CC(C)Cc1ccc(C(C)C(=O)O)cc1.CCCCCCOC(=O)[C@@H](N)C(C)C [[ValOHex][IBU], L-valine hexyl ester ibuprofenate]', 2.880),
  ('CC(C)Cc1ccc(C(C)C(=O)O)cc1.CCCCCOC(=O)[C@@H](N)C(C)C [[ValOAm][IBU], L-valine pentyl ester ibuprofenate]', 2.421),
  ('CC(C)Cc1ccc(C(C)C(=O)O)cc1 (racemic) [rac-IBU, 2-(4-isobutylphenyl)-propionic acid, reference compound]', 3.192),
  ('CC(C)Cc1ccc(C(C)C(=O)O)cc1.CCOC(=O)[C@@H](N)C(C)C [[ValOEt][IBU], L-valine ethyl ester ibuprofenate]', 2.023),
  ('CC(C)Cc1ccc(C(C)C(=O)O)cc1.CCCOC(=O)[C@@H](N)C(C)C [[ValOPr][IBU], L-valine propyl ester ibuprofenate]', 2.061);

====

assay: Solubility; format: physicochemical; details: pH 7.4, 25 °C
readout label: Solubility in phosphate buffer pH = 7.4

INSERT INTO measurements (compound, endpoint_value) VALUES
  ('CC(C)Cc1ccc(C(C)C(=O)O)cc1.CCCCCOC(=O)[C@@H](N)C(C)C [[ValOAm][IBU], L-valine pentyl ester ibuprofenate]', '1.931 ± 0.008 g dm^−3'),
  ('CC(C)Cc1ccc(C(C)C(=O)O)cc1.CCOC(=O)[C@@H](N)C(C)C [[ValOEt][IBU], L-valine ethyl ester ibuprofenate]', '5.206 ± 0.044 g dm^−3'),
  ('CC(C)Cc1ccc(C(C)C(=O)O)cc1.CCCOC(=O)[C@@H](N)C(C)C [[ValOPr][IBU], L-valine propyl ester ibuprofenate]', '5.367 ± 0.019 g dm^−3'),
  ('CC(C)Cc1ccc(C(C)C(=O)O)cc1.CCCCOC(=O)[C@@H](N)C(C)C [[ValOBu][IBU], L-valine butyl ester ibuprofenate]', '3.089 ± 0.015 g dm^−3'),
  ('CC(C)Cc1ccc(C(C)C(=O)O)cc1.CCCCCCOC(=O)[C@@H](N)C(C)C [[ValOHex][IBU], L-valine hexyl ester ibuprofenate]', '1.233 ± 0.001 g dm^−3');

====

experiment: Accumulation in the skin after 24 h permeation; type: in vitro ADME, porcine; details: after 24 h skin permeation from ethanolic solution
# reported Skin accumulation as % applied dose of IBU; entries follow
readout label: Skin accumulation as % applied dose of IBU

INSERT INTO assay_data (compound, endpoint_value) VALUES
  ('CC(C)Cc1ccc(C(C)C(=O)O)cc1.CCCOC(=O)[C@@H](N)C(C)C [[ValOPr][IBU], L-valine propyl ester ibuprofenate]', '5.9%'),
  ('CC(C)Cc1ccc(C(C)C(=O)O)cc1.CCCCOC(=O)[C@@H](N)C(C)C [[ValOBu][IBU], L-valine butyl ester ibuprofenate]', '7.0%'),
  ('CC(C)Cc1ccc(C(C)C(=O)O)cc1 (racemic) [rac-IBU, 2-(4-isobutylphenyl)-propionic acid, reference compound]', '3.1%'),
  ('CC(C)Cc1ccc(C(C)C(=O)O)cc1.CCOC(=O)[C@@H](N)C(C)C [[ValOEt][IBU], L-valine ethyl ester ibuprofenate]', '3.5%');

====

test: Skin permeation studies in Franz diffusion cells; assay type: in vitro ADME, porcine; settings: after 24 h permeation from ethanolic solution into acceptor phase
# reported Permeation as % applied dose of IBU; entries follow
readout label: Permeation as % applied dose of IBU (%)

INSERT INTO assay_data (compound, endpoint_value) VALUES
  ('CC(C)Cc1ccc(C(C)C(=O)O)cc1 (racemic) [rac-IBU, 2-(4-isobutylphenyl)-propionic acid, reference compound]', 6.06),
  ('CC(C)Cc1ccc(C(C)C(=O)O)cc1.CCOC(=O)[C@@H](N)C(C)C [[ValOEt][IBU], L-valine ethyl ester ibuprofenate]', 7.33),
  ('CC(C)Cc1ccc(C(C)C(=O)O)cc1.CCCCOC(=O)[C@@H](N)C(C)C [[ValOBu][IBU], L-valine butyl ester ibuprofenate]', 10.66),
  ('CC(C)Cc1ccc(C(C)C(=O)O)cc1.CCCCCOC(=O)[C@@H](N)C(C)C [[ValOAm][IBU], L-valine pentyl ester ibuprofenate]', 11.79),
  ('CC(C)Cc1ccc(C(C)C(=O)O)cc1.CCCCCCOC(=O)[C@@H](N)C(C)C [[ValOHex][IBU], L-valine hexyl ester ibuprofenate]', 9.81),
  ('CC(C)Cc1ccc(C(C)C(=O)O)cc1.CCCOC(=O)[C@@H](N)C(C)C [[ValOPr][IBU], L-valine propyl ester ibuprofenate]', 13.55);

====

# reported Solubility in water; entries follow
experiment: Solubility; format: physicochemical; settings: deionised water, 25 °C
readout label: Solubility in water (g dm^−3)

INSERT INTO assay_data (compound, endpoint_value) VALUES
  ('CC(C)Cc1ccc(C(C)C(=O)O)cc1.CCOC(=O)[C@@H](N)C(C)C [[ValOEt][IBU], L-valine ethyl ester ibuprofenate]', 5.542),
  ('CC(C)Cc1ccc(C(C)C(=O)O)cc1.CCCOC(=O)[C@@H](N)C(C)C [[ValOPr][IBU], L-valine propyl ester ibuprofenate]', 4.221),
  ('CC(C)Cc1ccc(C(C)C(=O)O)cc1.CCCCCOC(=O)[C@@H](N)C(C)C [[ValOAm][IBU], L-valine pentyl ester ibuprofenate]', 1.798),
  ('CC(C)Cc1ccc(C(C)C(=O)O)cc1.CCCCCCOC(=O)[C@@H](N)C(C)C [[ValOHex][IBU], L-valine hexyl ester ibuprofenate]', 1.058),
  ('CC(C)Cc1ccc(C(C)C(=O)O)cc1.CCCCOC(=O)[C@@H](N)C(C)C [[ValOBu][IBU], L-valine butyl ester ibuprofenate]', 3.125);

====

assay: Accumulation in the skin after 24 h permeation; assay type: in vitro ADME, porcine; details: after 24 h skin permeation from ethanolic solution, acceptor fluid pH 7.4, n = 3
Marks after values point to notes of the source that are not given here.
# reported Skin accumulation; entries follow
readout label: Skin accumulation

INSERT INTO measurements (molecule, endpoint_value) VALUES
  ('CC(C)Cc1ccc(C(C)C(=O)O)cc1 (racemic) [rac-IBU, 2-(4-isobutylphenyl)-propionic acid, reference compound]', '745.69 ± 61.87 μg IBU g^−1'),
  ('CC(C)Cc1ccc(C(C)C(=O)O)cc1.CCCCCCOC(=O)[C@@H](N)C(C)C [[ValOHex][IBU], L-valine hexyl ester ibuprofenate]', '612.86 ± 129.33 ^a μg IBU g^−1'),
  ('CC(C)Cc1ccc(C(C)C(=O)O)cc1.CCCCOC(=O)[C@@H](N)C(C)C [[ValOBu][IBU], L-valine butyl ester ibuprofenate]', '815.14 ± 58.92 ^b μg IBU g^−1'),
  ('CC(C)Cc1ccc(C(C)C(=O)O)cc1.CCCOC(=O)[C@@H](N)C(C)C [[ValOPr][IBU], L-valine propyl ester ibuprofenate]', '726.42 ± 113.37 ^a μg IBU g^−1'),
  ('CC(C)Cc1ccc(C(C)C(=O)O)cc1.CCCCCOC(=O)[C@@H](N)C(C)C [[ValOAm][IBU], L-valine pentyl ester ibuprofenate]', '565.60 ± 71.09 ^a μg IBU g^−1'),
  ('CC(C)Cc1ccc(C(C)C(=O)O)cc1.CCOC(=O)[C@@H](N)C(C)C [[ValOEt][IBU], L-valine ethyl ester ibuprofenate]', '412.19 ± 38.45 μg IBU g^−1');
